A set of molecules tested on Acetylcholinesterase (Homo sapiens, UniProt P22303), with measured pIC50:
Would you please state pIC50, meaning minus log10 of the concentration in mol/L, as a bare number?

Given the entry `COC(=O)/C(=C\C(=O)c1cc(O)ccc1O)CC/C=C(\C)CCC=C(C)C` , report its measured pIC50. 5.09

Would you mind doing O=C(O)CC1(CC(=O)c2cc(O)ccc2O)C=C(CO)CCC1 (stereo not drawn) as well? 4.59

Would you mind doing `C/C(=C/CC[C@H](CO)c1cc2cc(O)c(O)cc2o1)CO` as well? 4.54
